assay: self-splicing fitness, log relative to wild type (ln ratio); higher = more splicing; Tetrahymena group I intron in knt gene, E. coli kanamycin selection, DiMSum; sequences stand for … in CUCUCU…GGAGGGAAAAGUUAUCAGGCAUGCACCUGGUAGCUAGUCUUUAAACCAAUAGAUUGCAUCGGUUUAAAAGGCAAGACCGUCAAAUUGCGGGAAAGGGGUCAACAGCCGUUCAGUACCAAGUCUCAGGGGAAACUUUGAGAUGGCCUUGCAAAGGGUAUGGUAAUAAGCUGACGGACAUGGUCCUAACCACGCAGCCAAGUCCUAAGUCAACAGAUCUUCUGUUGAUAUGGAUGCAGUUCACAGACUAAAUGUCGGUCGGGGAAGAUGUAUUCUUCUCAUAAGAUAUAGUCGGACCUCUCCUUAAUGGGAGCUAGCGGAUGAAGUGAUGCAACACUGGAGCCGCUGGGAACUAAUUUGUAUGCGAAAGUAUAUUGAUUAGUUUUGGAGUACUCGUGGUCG; conditions: 30 °C;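 also: selection with 25 µg/mL kanamycin versus none on LB agar overnight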
Quick reference for self-splicing fitness (ln) among some sequences
Respond using a number only.

INSERT INTO assay_data (sequence_string, number) VALUES
  ('GAGUAGCAAUAUUACGGUUU', -0.669),
  ('UGCGAGCAAUAUUACGCACU', -1.68);

Form field self-splicing fitness (ln), entry UCUUAGCAAUAUUACGUUCA : -2.92

Form field self-splicing fitness (ln), entry CUCAAGCAAUAUUACGUUGU : -3.9

* * *

experiment: self-splicing fitness, log relative to wild type (ln ratio); higher = more splicing; Tetrahymena group I intron in knt gene, E. coli kanamycin selection, DiMSum; sequences stand for … in CUCUCU…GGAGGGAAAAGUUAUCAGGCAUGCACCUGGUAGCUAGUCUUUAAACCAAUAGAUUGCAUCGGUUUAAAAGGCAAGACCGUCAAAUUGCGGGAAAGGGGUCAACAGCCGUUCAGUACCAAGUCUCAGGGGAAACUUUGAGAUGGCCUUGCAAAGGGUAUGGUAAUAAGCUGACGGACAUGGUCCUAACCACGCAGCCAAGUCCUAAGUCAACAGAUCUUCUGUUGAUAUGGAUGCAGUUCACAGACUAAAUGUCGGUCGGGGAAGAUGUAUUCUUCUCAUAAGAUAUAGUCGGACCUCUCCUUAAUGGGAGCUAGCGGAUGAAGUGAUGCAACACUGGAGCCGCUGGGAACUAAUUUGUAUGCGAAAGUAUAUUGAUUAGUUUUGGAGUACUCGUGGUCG; conditions: 30 °C
MEASURE NAME: self-splicing fitness (ln)
Respond using a number only.

// below: answered sequences
INSERT INTO results (sequence_string, number) VALUES
  ('CCUGAGCAAUAUUACGCCAG', -2.75),
  ('UCAGAGCAAUAUUACGGAGC', -3.49),
  ('AGCUAGCAAUAUUACGAUAG', -3.51),
  ('GACUAGCAAUAUUACGAGCA', -1.51),
  ('UGUUAGCAAUAUUACGAUAG', -2.07),
  ('CCCAAGCAAUAUUACGUGGA', -0.971);

Form field self-splicing fitness (ln), entry UGGUAGCAAUAUUACGUCCG : -0.727

Form field self-splicing fitness (ln), entry ACCUAGCAAUAUUACGUAAU : -1.28

* * *

Quick reference for self-splicing fitness (ln) among some sequences
experiment: self-splicing fitness, log relative to wild type (ln ratio); higher = more splicing; Tetrahymena group I intron in knt gene, E. coli kanamycin selection, DiMSum; sequences stand for … in CUCUCU…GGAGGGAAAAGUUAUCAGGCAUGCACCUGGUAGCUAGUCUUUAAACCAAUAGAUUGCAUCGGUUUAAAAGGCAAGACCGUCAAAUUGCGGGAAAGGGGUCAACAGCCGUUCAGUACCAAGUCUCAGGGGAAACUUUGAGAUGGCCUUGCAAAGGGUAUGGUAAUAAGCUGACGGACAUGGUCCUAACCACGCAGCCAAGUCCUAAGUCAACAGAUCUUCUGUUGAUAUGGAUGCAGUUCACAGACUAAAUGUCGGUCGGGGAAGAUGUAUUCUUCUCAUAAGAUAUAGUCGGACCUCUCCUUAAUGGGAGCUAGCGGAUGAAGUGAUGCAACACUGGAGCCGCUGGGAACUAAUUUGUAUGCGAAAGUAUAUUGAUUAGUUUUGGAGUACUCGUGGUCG; conditions: 37 °C
Respond using a number only.

// below: answered sequences
INSERT INTO assay_data (sequence_string, number) VALUES
  ('UGGGAGCAAUAUUACGGCGU', -0.706),
  ('GAUGAGCAAUAUUACGAUUU', -2.1),
  ('UGAAAGCAAUAUUACGUGGU', -2.55),
  ('AAGGAGCAAUAUUACGUCGA', -1.89);

Turning to the following sequence.
Form field self-splicing fitness (ln), entry AUUUAGCAAUAUUACGGUUU : -0.0857
